pIC50: −log10 of the molar value.
UniProt Q04912 measurements of pIC50, listed per entry.
READOUT_KIND: pIC50

input_smiles=O=C(Nc1ccc(Oc2ccnc3cc(OCCN4CCOCC4)c(Cl)cc23)c(F)c1)c1c2c(cn(-c3ccc(F)cc3)c1=O)CCO2 measured=8.15
input_smiles=O=C(Nc1ccc(Oc2ccnc3ccc(OCCCN4CCOCC4)cc23)c(F)c1)c1c2c(cn(-c3ccc(F)cc3)c1=O)CCO2 measured=9.35
input_smiles=COc1cc2nccc(Oc3ccc(NC(=O)c4c5c(cn(-c6ccc(F)cc6)c4=O)CCO5)cc3F)c2cc1C(=O)N(C)C measured=8.53

----------
molecular target: RON tyrosine kinase (Homo sapiens)
Sequence (Q04912 25-1400): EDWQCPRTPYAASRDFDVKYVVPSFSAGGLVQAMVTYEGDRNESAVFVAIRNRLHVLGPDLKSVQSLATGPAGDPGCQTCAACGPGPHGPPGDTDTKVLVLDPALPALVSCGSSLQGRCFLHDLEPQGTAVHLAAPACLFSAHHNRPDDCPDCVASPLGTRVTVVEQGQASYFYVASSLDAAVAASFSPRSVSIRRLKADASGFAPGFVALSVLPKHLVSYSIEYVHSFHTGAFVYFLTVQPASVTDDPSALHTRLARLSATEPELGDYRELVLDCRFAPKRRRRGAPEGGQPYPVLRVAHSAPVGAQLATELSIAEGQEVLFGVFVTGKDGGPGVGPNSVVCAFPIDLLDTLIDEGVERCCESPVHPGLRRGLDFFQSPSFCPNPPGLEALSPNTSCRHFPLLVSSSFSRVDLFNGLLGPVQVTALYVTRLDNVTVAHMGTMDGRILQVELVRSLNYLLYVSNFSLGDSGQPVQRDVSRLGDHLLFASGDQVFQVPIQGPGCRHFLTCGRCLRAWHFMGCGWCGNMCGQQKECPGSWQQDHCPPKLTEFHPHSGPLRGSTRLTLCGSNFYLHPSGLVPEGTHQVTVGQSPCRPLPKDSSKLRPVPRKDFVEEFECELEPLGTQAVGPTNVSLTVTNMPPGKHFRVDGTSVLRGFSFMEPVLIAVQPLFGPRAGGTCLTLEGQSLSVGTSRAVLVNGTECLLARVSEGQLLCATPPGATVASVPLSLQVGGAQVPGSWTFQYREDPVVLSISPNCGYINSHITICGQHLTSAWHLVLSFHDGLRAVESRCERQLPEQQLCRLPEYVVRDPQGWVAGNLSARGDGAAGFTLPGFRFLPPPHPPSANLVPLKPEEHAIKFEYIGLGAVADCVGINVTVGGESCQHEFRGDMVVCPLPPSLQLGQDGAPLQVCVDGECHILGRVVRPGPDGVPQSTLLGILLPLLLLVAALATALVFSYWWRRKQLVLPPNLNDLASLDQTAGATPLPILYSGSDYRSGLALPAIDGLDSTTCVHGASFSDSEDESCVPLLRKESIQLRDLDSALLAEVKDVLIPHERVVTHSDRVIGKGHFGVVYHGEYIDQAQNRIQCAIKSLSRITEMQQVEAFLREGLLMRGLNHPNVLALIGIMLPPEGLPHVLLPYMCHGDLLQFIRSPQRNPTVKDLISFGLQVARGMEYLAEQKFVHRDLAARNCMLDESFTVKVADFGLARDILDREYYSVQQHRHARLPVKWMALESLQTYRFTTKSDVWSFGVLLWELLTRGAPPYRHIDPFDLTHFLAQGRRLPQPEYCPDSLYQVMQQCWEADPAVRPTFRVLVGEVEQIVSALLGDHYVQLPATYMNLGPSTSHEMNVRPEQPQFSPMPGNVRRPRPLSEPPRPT
Structures can show the parent of a compound that is named as a salt.
Threshold 2 nM: IC50 strictly smaller gives yes (1), otherwise no (0).

compound=Nc1cc(Oc2ccc(NC(=O)c3c4c(cn(-c5ccc(F)cc5)c3=O)CCO4)cc2F)ncn1 answer_label="no (0)"
compound=COc1cc2ncnc(Oc3ccc(NC(=O)c4c5c(cn(-c6ccc(F)cc6)c4=O)CCO5)cc3F)c2cc1OC answer_label="no (0)"
compound=COc1cc2c(Oc3ccc(NC(=O)c4c5c(cn(-c6ccc(F)cc6)c4=O)CCO5)cc3F)ccnc2cc1OCCCN1CCN(C)CC1 answer_label="yes (1)"
compound=COc1ccc2nccc(Oc3ccc(NC(=O)c4c5c(cn(-c6ccc(F)cc6)c4=O)CCO5)cc3F)c2c1 answer_label="yes (1)"
compound="O=C(Nc1ccc(Oc2ccnc3cc(-c4ccc(CN5CCOCC5)cn4)sc23)c(F)c1)c1c2c(cn(-c3ccccc3)c1=O)CCO2 [Example 6, hydrochloride]" answer_label="yes (1)"
compound="O=C(Nc1ccc(Oc2ccnc3cc(-c4ccc(CN5CCOCC5)cn4)sc23)c(F)c1)c1c2c(cn(-c3ccc(F)cc3)c1=O)CCO2 [Example 5, hydrochloride]" answer_label="no (0)"

----------
Measured cytotoxicity at 5 µM, listed per entry.
test system: cancer cell line KM12C, in which RON is activated; test: Cell-killing efficacy in RON-activated cancer cell line (trypan blue); format: cell-based; conditions: Homo sapiens, 5 μM, 48 hours, trypan blue, n=2, read-out: Cell death (%) Cancer cell line KM12C
Where a name gives a salt, the structure may show the parent alone.
READOUT_KIND: cytotoxicity at 5 µM (%)

compound=COc1cc2c(Oc3ccc(NC(=O)c4c5c(cn(-c6ccc(F)cc6)c4=O)CCO5)cc3F)ccnc2cc1OCCCN1CCOCC1 measured_target="cancer cell line KM12C, in which RON is activated" readout_kind="cytotoxicity at 5 µM" measured=38.3
compound=COc1cc2c(Oc3ccc(NC(=O)c4c5c(cn(-c6ccc(F)cc6)c4=O)CCO5)cc3F)ccnc2cc1OCCCN1CC(C#N)C1 measured_target="cancer cell line KM12C, in which RON is activated" readout_kind="cytotoxicity at 5 µM" measured=24.7
compound="COCCNCc1ccc(-c2cc3nccc(Oc4ccc(NC(=O)c5c6c(cn(-c7ccc(F)cc7)c5=O)CCO6)cc4F)c3s2)nc1 [Example 1, hydrochloride]" measured_target="cancer cell line KM12C, in which RON is activated" readout_kind="cytotoxicity at 5 µM" measured=68.6
compound=O=C(Nc1ccc(Oc2ccnc3cc(-c4ccc(CN5CCC(F)CC5)cn4)sc23)c(F)c1)c1c2c(cn(-c3ccc(F)cc3)c1=O)CCO2 measured_target="cancer cell line KM12C, in which RON is activated" readout_kind="cytotoxicity at 5 µM" measured=15.9
compound="CC1(O)CCN(Cc2ccc(-c3cc4nccc(Oc5ccc(NC(=O)c6c7c(cn(-c8ccc(F)cc8)c6=O)CCO7)cc5F)c4s3)nc2)C1 (stereo not shown)" measured_target="cancer cell line KM12C, in which RON is activated" readout_kind="cytotoxicity at 5 µM" measured=16.9
compound=CC1CCN(CCCOc2ccc3c(Oc4ccc(NC(=O)c5c6c(cn(-c7ccc(F)cc7)c5=O)CCO6)cc4F)ccnc3c2)CC1 measured_target="cancer cell line KM12C, in which RON is activated" readout_kind="cytotoxicity at 5 µM" measured=22.6
compound=COc1cc2c(Oc3ccc(NC(=O)c4c5c(cn(-c6ccc(F)cc6)c4=O)CCO5)cc3F)ccnc2cc1OCCCN1CCC(F)(F)CC1 measured_target="cancer cell line KM12C, in which RON is activated" readout_kind="cytotoxicity at 5 µM" measured=45.2
compound=COc1cc2c(Oc3ccc(NC(=O)c4c5c(cn(-c6ccc(F)cc6)c4=O)CCO5)cc3F)ccnc2cc1OCCN1CCC(F)(F)CC1 measured_target="cancer cell line KM12C, in which RON is activated" readout_kind="cytotoxicity at 5 µM" measured=45.4
compound=O=C(Nc1ccc(Oc2ccnc3cc(-c4ccc(CN5CC(F)C5)cn4)sc23)c(F)c1)c1c2c(cn(-c3ccc(F)cc3)c1=O)CCO2 measured_target="cancer cell line KM12C, in which RON is activated" readout_kind="cytotoxicity at 5 µM" measured=27.7
compound=CN(C)C1CN(Cc2ccc(-c3cc4nccc(Oc5ccc(NC(=O)c6c7c(cn(-c8ccc(F)cc8)c6=O)CCO7)cc5F)c4s3)nc2)C1 measured_target="cancer cell line KM12C, in which RON is activated" readout_kind="cytotoxicity at 5 µM" measured=35.5
compound=COC1CN(Cc2ccc(-c3cc4nccc(Oc5ccc(NC(=O)c6c7c(cn(-c8ccc(F)cc8)c6=O)CCO7)cc5F)c4s3)nc2)C1 measured_target="cancer cell line KM12C, in which RON is activated" readout_kind="cytotoxicity at 5 µM" measured=21.5
compound=O=C(Nc1ccc(Oc2ccnc3cc(-c4ccc(CN5CCC(O)CC5)cn4)sc23)c(F)c1)c1c2c(cn(-c3ccc(F)cc3)c1=O)CCO2 measured_target="cancer cell line KM12C, in which RON is activated" readout_kind="cytotoxicity at 5 µM" measured=24.5
compound="COCCNCc1ccc(-c2cc3nccc(Oc4ccc(NC(=O)c5c6c(cn(-c7ccccc7)c5=O)CCO6)cc4F)c3s2)nc1 [Example 2, hydrochloride]" measured_target="cancer cell line KM12C, in which RON is activated" readout_kind="cytotoxicity at 5 µM" measured=93.4
compound=COc1cc2c(Oc3ccc(NC(=O)c4c5c(cn(-c6ccc(F)cc6)c4=O)CCO5)cc3F)ccnc2cc1OCCCN1CCS(=O)(=O)CC1 measured_target="cancer cell line KM12C, in which RON is activated" readout_kind="cytotoxicity at 5 µM" measured=29.7
compound=COc1cc2c(Oc3ccc(NC(=O)c4c5c(cn(-c6ccc(F)cc6)c4=O)CCO5)cc3F)ccnc2cc1OCCN1CC(C#N)C1 measured_target="cancer cell line KM12C, in which RON is activated" readout_kind="cytotoxicity at 5 µM" measured=39.6
compound="COc1cc2c(Oc3ccc(NC(=O)c4c5c(cn(-c6ccc(F)cc6)c4=O)CCO5)cc3F)ccnc2cc1OCCCN1CCC(C)(O)C1 (stereo not shown)" measured_target="cancer cell line KM12C, in which RON is activated" readout_kind="cytotoxicity at 5 µM" measured=14.3
compound=COc1cc2nccc(Oc3ccc(NC(=O)c4c5c(cn(-c6ccc(F)cc6)c4=O)CCO5)cc3F)c2cc1NC(C)=O measured_target="cancer cell line KM12C, in which RON is activated" readout_kind="cytotoxicity at 5 µM" measured=24.7
compound="O=C(Nc1ccc(Oc2ccnc3cc(-c4ccc(CN5CCC(F)C5)cn4)sc23)c(F)c1)c1c2c(cn(-c3ccc(F)cc3)c1=O)CCO2 (stereo not shown)" measured_target="cancer cell line KM12C, in which RON is activated" readout_kind="cytotoxicity at 5 µM" measured=29
compound="COC1CCCN(Cc2ccc(-c3cc4nccc(Oc5ccc(NC(=O)c6c7c(cn(-c8ccc(F)cc8)c6=O)CCO7)cc5F)c4s3)nc2)C1 (stereo not shown)" measured_target="cancer cell line KM12C, in which RON is activated" readout_kind="cytotoxicity at 5 µM" measured=20.4
compound=CNC(=O)c1cc2c(Oc3ccc(NC(=O)c4c5c(cn(-c6ccc(F)cc6)c4=O)CCO5)cc3F)ccnc2cc1OC measured_target="cancer cell line KM12C, in which RON is activated" readout_kind="cytotoxicity at 5 µM" measured=15.5
compound=COc1cc2nccc(Oc3ccc(NC(=O)c4c5c(cn(-c6ccc(F)cc6)c4=O)CCO5)cc3F)c2cc1C(=O)N(C)C measured_target="cancer cell line KM12C, in which RON is activated" readout_kind="cytotoxicity at 5 µM" measured=11.2
compound=Cn1cnc(-c2cc3nccc(Oc4ccc(NC(=O)c5c6c(cn(-c7ccc(F)cc7)c5=O)CCO6)cc4F)c3s2)c1 measured_target="cancer cell line KM12C, in which RON is activated" readout_kind="cytotoxicity at 5 µM" measured=46.9
compound=COc1cc2c(Oc3ccc(NC(=O)c4c5c(cn(-c6ccc(F)cc6)c4=O)CCO5)cc3F)ccnc2cc1OCCCN1CCC(F)(F)C1 measured_target="cancer cell line KM12C, in which RON is activated" readout_kind="cytotoxicity at 5 µM" measured=25.6
compound=CNC(=O)c1cc2c(Oc3ccc(NC(=O)c4c5c(cn(-c6ccc(F)cc6)c4=O)CCO5)cc3F)ccnc2cc1OCCCN1CCOCC1 measured_target="cancer cell line KM12C, in which RON is activated" readout_kind="cytotoxicity at 5 µM" measured=29.7
compound=O=C(Nc1ccc(Oc2ccnc3cc(-c4ccc(CN5CCC(F)(F)C5)cn4)sc23)c(F)c1)c1c2c(cn(-c3ccc(F)cc3)c1=O)CCO2 measured_target="cancer cell line KM12C, in which RON is activated" readout_kind="cytotoxicity at 5 µM" measured=10.3

Data origin, for the record: patent US20220235064A1
